- Subject Of Test: human TRPA1 (Homo sapiens, UniProt O75762)
- Construct: expressed in transfected cells
- Sequence (O75762 whole entry): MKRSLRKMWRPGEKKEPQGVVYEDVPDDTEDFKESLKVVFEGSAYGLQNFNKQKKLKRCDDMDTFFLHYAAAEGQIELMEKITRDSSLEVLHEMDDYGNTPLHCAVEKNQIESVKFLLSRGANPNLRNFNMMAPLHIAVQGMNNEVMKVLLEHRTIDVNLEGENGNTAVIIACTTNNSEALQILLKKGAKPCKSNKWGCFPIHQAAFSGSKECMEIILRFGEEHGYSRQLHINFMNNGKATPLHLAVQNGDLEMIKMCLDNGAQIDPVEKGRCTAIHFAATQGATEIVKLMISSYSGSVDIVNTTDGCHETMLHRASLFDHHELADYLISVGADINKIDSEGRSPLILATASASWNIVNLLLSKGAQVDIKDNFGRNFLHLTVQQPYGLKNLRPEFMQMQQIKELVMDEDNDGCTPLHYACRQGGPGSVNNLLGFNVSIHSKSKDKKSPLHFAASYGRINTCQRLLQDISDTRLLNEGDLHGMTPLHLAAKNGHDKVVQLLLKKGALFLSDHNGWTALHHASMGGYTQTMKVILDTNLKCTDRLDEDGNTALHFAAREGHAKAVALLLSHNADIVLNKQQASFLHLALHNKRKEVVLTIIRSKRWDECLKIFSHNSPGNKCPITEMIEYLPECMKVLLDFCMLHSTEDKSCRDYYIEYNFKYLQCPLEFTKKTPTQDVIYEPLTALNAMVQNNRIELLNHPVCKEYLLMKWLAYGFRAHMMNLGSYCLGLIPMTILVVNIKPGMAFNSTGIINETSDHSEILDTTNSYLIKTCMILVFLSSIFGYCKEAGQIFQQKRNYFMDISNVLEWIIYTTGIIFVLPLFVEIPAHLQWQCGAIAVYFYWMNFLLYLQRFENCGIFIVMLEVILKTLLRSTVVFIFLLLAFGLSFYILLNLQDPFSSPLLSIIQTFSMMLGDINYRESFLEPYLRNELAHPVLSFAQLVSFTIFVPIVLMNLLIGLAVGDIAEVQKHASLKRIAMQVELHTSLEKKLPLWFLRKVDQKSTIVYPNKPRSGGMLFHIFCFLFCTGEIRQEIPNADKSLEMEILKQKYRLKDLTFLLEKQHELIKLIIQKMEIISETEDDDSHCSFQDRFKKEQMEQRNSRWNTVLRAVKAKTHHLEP
- Assay Summary: Cell-based functional intracellular calcium ([Ca2+]i) assay, Fluo-4/Fluo-8, FlexStation, challenge with reference TRPA1 agonist (FFA, AITC or 4-HNE)
- Conditions Used: HEK293 cells expressing human TRPA1; IC50 class after addition of reference TRPA1 agonist (FFA, AITC or 4-HNE); read-out: human TRPA1-HEK Activity
pIC50: −log10 of the molar value.
Observation Type: pIC50

Compound: O=C(c1cc(-c2ccncc2)n(-c2ccc(C(F)(F)F)nc2)n1)N1CCC(N2C(=O)OC[C@H]2c2ccccc2)CC1 [Compound 127]
Reported Value: < 4.60

Compound: O=C(c1cc(-c2ccncc2)n(-c2ccc(C(F)(F)F)nc2)n1)N1CCC2(CC1)OCc1ccccc12 [Compound 122]
Reported Value: < 4.60

Compound: O=C(c1cc(-c2cccnc2)n(-c2cc(F)c(F)c(F)c2)n1)N1CCC2(CC1)C(=O)NCN2c1ccc(I)cc1 [Compound 200]
Reported Value: 5.30 to 9.00

Compound: O=C(c1cc(-c2cccnc2)n(-c2cc(F)c(F)c(F)c2)n1)N1CCC2(CC1)C(=O)NCN2c1ccc(F)c(F)c1 [Compound 254]
Reported Value: 5.30 to 9.00

Compound: O=C(Nc1nc(-c2ccc(F)c(C(F)(F)F)c2)cs1)c1cc(-c2ccncc2)n(-c2ccccc2)n1 [Compound 37]
Reported Value: < 4.60

Compound: O=C(c1cc(-c2ccncc2)n(-c2cc(F)c(F)c(F)c2)n1)N1CCC(n2c(=O)[nH]c3ccc(F)c(F)c32)CC1 [Compound 175]
Reported Value: 5.30 to 9.00

Compound: O=C1OC2(CCN(C(=O)c3cc(-c4ccncc4)n(-c4ccc(C(F)(F)F)nc4)n3)CC2)c2ccccc21 [Compound 123]
Reported Value: < 4.60

Compound: COc1cc(F)ccc1N1CNC(=O)C12CCN(C(=O)c1cc(-c3cccnc3)n(-c3ccc(C(F)(F)F)c(F)c3)n1)CC2 [Compound 197]
Reported Value: 4.60 to 5.30

Compound: Cn1c(=O)n(C2CCN(C(=O)c3cc(-c4ccncc4)n(-c4ccc(C(F)(F)F)c(F)c4)n3)CC2)c2ccccc21 [Compound 105]
Reported Value: < 4.60

Compound: O=C(c1cc(-c2cccnc2)n(-c2ccc(F)c(C(F)(F)F)c2)n1)N1CCC2(CC1)C(=O)NCN2c1cc(Cl)c(F)c(Cl)c1 [Compound 332]
Reported Value: 5.30 to 9.00

Compound: O=C(c1cc(-c2ccncc2)n(-c2ccc(F)c(F)c2)n1)N1CCC2(CC1)C(=O)NCN2c1ccc(Cl)cc1 [Compound 78]
Reported Value: < 4.60

Compound: O=C(c1cc(-c2cccnc2)n(-c2ccc(Cl)c(C(F)(F)F)c2)n1)N1CCC(n2c(=O)[nH]c3ccc(F)c(F)c32)CC1 [Compound 295]
Reported Value: 5.30 to 9.00

Compound: N#Cc1cc(-n2nc(C(=O)N3CCC(n4c(=O)[nH]c5ccc(F)c(F)c54)CC3)cc2-c2cccnc2)ccc1F [Compound 248]
Reported Value: 5.30 to 9.00

Compound: O=C(c1cc(-c2ccncc2)n(-c2ccc(F)c(F)c2)n1)N1CCC2(CC1)SCCS2 [Compound 85]
Reported Value: < 4.60
